activity coefficient listing for selected compounds.
Assay: activity coefficient (dimensionless); of the first substance listed, at infinite dilution; xn = mol fraction of the nth substance listed
Conditions: 328.15 K; 101 kPa; Liquid; Chromatography; x1 = 0
Reply with the value as a number alone.

Recorded results for 8 compounds are shown here.
CCCCCCC [heptane] + COCC[N+]1(C)CCCC1.O=S(=O)([N-]S(=O)(=O)C(F)(F)F)C(F)(F)F : 25.9
CC(C)CO [2-methyl-1-propanol] + COCC[N+]1(C)CCCC1.O=S(=O)([N-]S(=O)(=O)C(F)(F)F)C(F)(F)F : 2.46
CC(C)(C)O [2-methylpropan-2-ol] + COCC[N+]1(C)CCCC1.O=S(=O)([N-]S(=O)(=O)C(F)(F)F)C(F)(F)F : 1.79
C#CCCCC [1-hexyne] + COCC[N+]1(C)CCCC1.O=S(=O)([N-]S(=O)(=O)C(F)(F)F)C(F)(F)F : 3.29
CCCC(=O)OC [methyl butanoate] + COCC[N+]1(C)CCCC1.O=S(=O)([N-]S(=O)(=O)C(F)(F)F)C(F)(F)F : 1.31
CCC(C)(C)OC [2-methoxy-2-methylbutane] + COCC[N+]1(C)CCCC1.O=S(=O)([N-]S(=O)(=O)C(F)(F)F)C(F)(F)F : 4.06
C#CCCCCCC [1-octyne] + COCC[N+]1(C)CCCC1.O=S(=O)([N-]S(=O)(=O)C(F)(F)F)C(F)(F)F : 6.73
CCCO [propan-1-ol] + COCC[N+]1(C)CCCC1.O=S(=O)([N-]S(=O)(=O)C(F)(F)F)C(F)(F)F : 2.02

Exercise: Look up activity coefficient: CC(C)OC(C)C [diisopropyl ether] + COCC[N+]1(C)CCCC1.O=S(=O)([N-]S(=O)(=O)C(F)(F)F)C(F)(F)F
Key: 6.55

Exercise: Look up activity coefficient: C=C(C)c1ccccc1 [(1-methylethenyl)benzene] + COCC[N+]1(C)CCCC1.O=S(=O)([N-]S(=O)(=O)C(F)(F)F)C(F)(F)F
Key: 1.93

Exercise: Look up activity coefficient: C1CCCCCC1 [cycloheptane] + COCC[N+]1(C)CCCC1.O=S(=O)([N-]S(=O)(=O)C(F)(F)F)C(F)(F)F
Key: 14.1

Exercise: Look up activity coefficient: CCCOCCC [dipropyl ether] + COCC[N+]1(C)CCCC1.O=S(=O)([N-]S(=O)(=O)C(F)(F)F)C(F)(F)F
Key: 7.03

Exercise: Look up activity coefficient: CCCCCCCCC [nonane] + COCC[N+]1(C)CCCC1.O=S(=O)([N-]S(=O)(=O)C(F)(F)F)C(F)(F)F
Key: 52.9

Exercise: Look up activity coefficient: C=CCCCCCCCC [1-decene] + COCC[N+]1(C)CCCC1.O=S(=O)([N-]S(=O)(=O)C(F)(F)F)C(F)(F)F
Key: 39

Exercise: Look up activity coefficient: CCC[N+](=O)[O-] [1-nitropropane] + COCC[N+]1(C)CCCC1.O=S(=O)([N-]S(=O)(=O)C(F)(F)F)C(F)(F)F
Key: 0.742

Exercise: Look up activity coefficient: Cc1ccccc1 [toluene] + COCC[N+]1(C)CCCC1.O=S(=O)([N-]S(=O)(=O)C(F)(F)F)C(F)(F)F
Key: 1.5

Exercise: Look up activity coefficient: CCO [ethanol] + COCC[N+]1(C)CCCC1.O=S(=O)([N-]S(=O)(=O)C(F)(F)F)C(F)(F)F
Key: 1.63

Exercise: Look up activity coefficient: CCOCC [diethyl ether] + COCC[N+]1(C)CCCC1.O=S(=O)([N-]S(=O)(=O)C(F)(F)F)C(F)(F)F
Key: 2.79

###

Assay: activity coefficient (dimensionless); of the first substance listed, at infinite dilution; xn = mol fraction of the nth substance listed
Settings: 318.15 K; 101 kPa; Liquid; Chromatography; x1 = 0
Note to self: values exactly at 6 are fulfilled. So activity coefficient at or above 6 is fulfilled, below is not fulfilled.

Please review the following examples before continuing.
C=CCCCCCCCC [1-decene] + COCC[N+]1(C)CCCC1.O=S(=O)([N-]S(=O)(=O)C(F)(F)F)C(F)(F)F : fulfilled
Cc1ccccc1 [toluene] + COCC[N+]1(C)CCCC1.O=S(=O)([N-]S(=O)(=O)C(F)(F)F)C(F)(F)F : not fulfilled
C#CCCCCCC [1-octyne] + COCC[N+]1(C)CCCC1.O=S(=O)([N-]S(=O)(=O)C(F)(F)F)C(F)(F)F : fulfilled

Exercise: Dear colleague, could you confirm whether C=CCCCCCC [oct-1-ene] + COCC[N+]1(C)CCCC1.O=S(=O)([N-]S(=O)(=O)C(F)(F)F)C(F)(F)F has activity coefficient at or above 6?
Key: fulfilled

Exercise: Dear colleague, could you confirm whether Cc1ccc(C)cc1 [1,4-dimethylbenzene] + COCC[N+]1(C)CCCC1.O=S(=O)([N-]S(=O)(=O)C(F)(F)F)C(F)(F)F has activity coefficient at or above 6?
Key: not fulfilled

Exercise: Dear colleague, could you confirm whether Cc1cccc(C)c1 [1,3-dimethylbenzene] + COCC[N+]1(C)CCCC1.O=S(=O)([N-]S(=O)(=O)C(F)(F)F)C(F)(F)F has activity coefficient at or above 6?
Key: not fulfilled

Exercise: Dear colleague, could you confirm whether CC(C)=O [acetone] + COCC[N+]1(C)CCCC1.O=S(=O)([N-]S(=O)(=O)C(F)(F)F)C(F)(F)F has activity coefficient at or above 6?
Key: not fulfilled

Exercise: Dear colleague, could you confirm whether CCCO [propan-1-ol] + COCC[N+]1(C)CCCC1.O=S(=O)([N-]S(=O)(=O)C(F)(F)F)C(F)(F)F has activity coefficient at or above 6?
Key: not fulfilled

###

Experiment: activity coefficient (dimensionless); of the first substance listed, at infinite dilution; xn = mol fraction of the nth substance listed
Conditions: 368.15 K; 101 kPa; Liquid; Chromatography; x1 = 0
activity coefficient listing for selected molecules.
Reply with the value as a number alone.

Exercise: Look up activity coefficient: C=CCCC [1-pentene] + COCC[N+]1(C)CCCC1.O=S(=O)([N-]S(=O)(=O)C(F)(F)F)C(F)(F)F
Key: 5.91

Exercise: Look up activity coefficient: C=CCCCCCC [oct-1-ene] + COCC[N+]1(C)CCCC1.O=S(=O)([N-]S(=O)(=O)C(F)(F)F)C(F)(F)F
Key: 15.6

###

Experiment: activity coefficient (dimensionless); of the first substance listed, at infinite dilution; xn = mol fraction of the nth substance listed
Settings: 348.15 K; 101 kPa; Liquid; Chromatography; x1 = 0
observed.property: activity coefficient
Reply with the value as a number alone.

Recorded results for 2 compounds are shown here.
CCC(=O)CC [pentan-3-one] + COCC[N+]1(C)CCCC1.O=S(=O)([N-]S(=O)(=O)C(F)(F)F)C(F)(F)F : 0.887
C1CCCCCC1 [cycloheptane] + COCC[N+]1(C)CCCC1.O=S(=O)([N-]S(=O)(=O)C(F)(F)F)C(F)(F)F : 12.3

Next item in the queue.
Exercise: Look up activity coefficient: Cc1ccccc1 [toluene] + COCC[N+]1(C)CCCC1.O=S(=O)([N-]S(=O)(=O)C(F)(F)F)C(F)(F)F
Key: 1.53

###

Test: activity coefficient (dimensionless); of the first substance listed, at infinite dilution; xn = mol fraction of the nth substance listed
Settings: 358.15 K; 101 kPa; Liquid; Chromatography; x1 = 0
Please use fulfilled for activity coefficient under 2 and not fulfilled for everything else, ties included.

Please review the following examples before continuing.
C=Cc1ccccc1 [styrene] + COCC[N+]1(C)CCCC1.O=S(=O)([N-]S(=O)(=O)C(F)(F)F)C(F)(F)F : fulfilled
Cc1cccc(C)c1 [1,3-dimethylbenzene] + COCC[N+]1(C)CCCC1.O=S(=O)([N-]S(=O)(=O)C(F)(F)F)C(F)(F)F : not fulfilled
C1CCCCC1 [cyclohexane] + COCC[N+]1(C)CCCC1.O=S(=O)([N-]S(=O)(=O)C(F)(F)F)C(F)(F)F : not fulfilled
CCO [ethanol] + COCC[N+]1(C)CCCC1.O=S(=O)([N-]S(=O)(=O)C(F)(F)F)C(F)(F)F : fulfilled
CCC(C)O (stereo not drawn) [butan-2-ol] + COCC[N+]1(C)CCCC1.O=S(=O)([N-]S(=O)(=O)C(F)(F)F)C(F)(F)F : fulfilled

Exercise: Strictly below 2 in activity coefficient? CCOC(C)=O [ethyl acetate] + COCC[N+]1(C)CCCC1.O=S(=O)([N-]S(=O)(=O)C(F)(F)F)C(F)(F)F
Key: fulfilled

Exercise: Strictly below 2 in activity coefficient? Cc1ccccc1 [toluene] + COCC[N+]1(C)CCCC1.O=S(=O)([N-]S(=O)(=O)C(F)(F)F)C(F)(F)F
Key: fulfilled

Exercise: Strictly below 2 in activity coefficient? CCCCC [pentane] + COCC[N+]1(C)CCCC1.O=S(=O)([N-]S(=O)(=O)C(F)(F)F)C(F)(F)F
Key: not fulfilled

Exercise: Strictly below 2 in activity coefficient? CCC(=O)CC [pentan-3-one] + COCC[N+]1(C)CCCC1.O=S(=O)([N-]S(=O)(=O)C(F)(F)F)C(F)(F)F
Key: fulfilled

Exercise: Strictly below 2 in activity coefficient? COC(C)=O [methyl ethanoate] + COCC[N+]1(C)CCCC1.O=S(=O)([N-]S(=O)(=O)C(F)(F)F)C(F)(F)F
Key: fulfilled

Exercise: Strictly below 2 in activity coefficient? C=C(C)c1ccccc1 [(1-methylethenyl)benzene] + COCC[N+]1(C)CCCC1.O=S(=O)([N-]S(=O)(=O)C(F)(F)F)C(F)(F)F
Key: not fulfilled

Reference source for all entries: the NIST ThermoML archive (doi:10.1016/j.jct.2012.03.015)
